# Study target: T1, human BMP-11 (GDF-11; R&D Systems) (human, UniProt O95390 299-407)
# T1 sequence (looked up): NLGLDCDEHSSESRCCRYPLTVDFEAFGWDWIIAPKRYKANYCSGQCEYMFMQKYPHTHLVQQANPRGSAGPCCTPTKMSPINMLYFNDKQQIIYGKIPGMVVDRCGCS
# Test details: SPR format A, 25C
Overview of reported Kd across a group of binders:
Your answer should be a plain number; it is taken to be in nM.

Binder: ATI-1267 [N-ethylmaleimide] (designed binder, N-ethylmaleimide on the Cys of the EGSGC tail, cysteine mutant of 2525_D02) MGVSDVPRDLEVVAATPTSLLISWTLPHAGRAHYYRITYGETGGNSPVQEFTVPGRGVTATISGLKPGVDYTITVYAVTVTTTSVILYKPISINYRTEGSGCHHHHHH
Reported measurement: 0.065

Turning now to a further binder:
Record request: Kd value, item ATI-1375 [40K 2-branch PEG] (designed binder, 40K 2-branch PEG on the Cys of the EGSGC tail, cysteine mutant of 3115_D04) MGVSDVPRDLEVVAATPTSLLISWDAPRGLARYYRITYGETGGNSPVQEFTVFGRGTTATISGLKPGVDYTITVYAVTIDRDGTRSFDPISINYRTEGSGCHHHHHH 33.2

Origin of measurements: patent US20170088602A1
